These measurements were taken from paper PMC12135066.

# System: HEK-uPAR xenograft-bearing nude mice
# RUN_DESCRIPTION: Biodistribution studies in HEK-uPAR xenograft-bearing nude mice
# ASSAY_CONTEXT: 24 h p.i.; average ± SD, n=3 animals
RECORDED_ENDPOINT: Xenograft-to-kidney ratio

[
  {
    "MOLECULE": "CC(C)C[C@H](NC(=O)[C@H](Cc1ccc(O)cc1)NC(=O)[C@@H](CCCNC(=N)N)NC(=O)[C@@H](CO)NC(=O)[C@H](Cc1ccccc1)NC(=O)[C@H](CC1CCCCC1)NC(=O)[C@H](CC(=O)O)NC(=O)[C@H](CCCCNC(=O)CCCc1ccc(I)cc1)NC(=O)[C@@H](N)CCCCNC(=O)CN1CCN(CC(=O)O)CCN(CC(=O)O)CCN(CC(=O)O)CC1)C(=O)N[C@@H](Cc1c[nH]c2ccccc12)C(=O)N[C@@H](CO)C(N)=O [[^177Lu]Lu-uPAR-04, metal not drawn]",
    "RECORDED_ENDPOINT": "Xenograft-to-kidney ratio",
    "MEASUREMENT": "0.73 ± 0.15"
  }
]

* * *

Parameter tissue uptake at 4 h: see the listing below.
# RUN_DESCRIPTION: Biodistribution studies in HEK-uPAR xenograft-bearing nude mice
# ASSAY_CONTEXT: female, CD1/nude, mouse, pancreas, 5 MBq (0.5 nmol), total radioactivity, 4 h p.i.; 5 MBq, 0.5 nmol; decay-corrected; average ± SD, n=3 animals

[
  {
    "MOLECULE": "CC(C)C[C@H](NC(=O)[C@H](Cc1ccc(O)cc1)NC(=O)[C@@H](CCCNC(=N)N)NC(=O)[C@@H](CO)NC(=O)[C@H](Cc1ccccc1)NC(=O)[C@H](CC1CCCCC1)NC(=O)[C@H](CC(=O)O)NC(=O)[C@H](CCCCNC(=O)CCCc1ccc(I)cc1)NC(=O)[C@@H](N)CCCCNC(=O)CN1CCN(CC(=O)O)CCN(CC(=O)O)CCN(CC(=O)O)CC1)C(=O)N[C@@H](Cc1c[nH]c2ccccc12)C(=O)N[C@@H](CO)C(N)=O [[^177Lu]Lu-uPAR-04, metal not drawn]",
    "UNITS": "%ID/g",
    "tissue uptake at 4 h": 1.5
  },
  {
    "MOLECULE": "CC(C)C[C@H](NC(=O)[C@H](Cc1ccc(O)cc1)NC(=O)[C@@H](CCCNC(=N)N)NC(=O)[C@@H](CO)NC(=O)[C@H](Cc1ccccc1)NC(=O)[C@H](CC1CCCCC1)NC(=O)[C@H](CC(=O)O)NC(=O)CCOCCOCCOCCOCCNC(=O)[C@H](CCCCNC(=O)CCCc1ccc(I)cc1)NC(=O)CN1CCN(CC(=O)O)CCN(CC(=O)O)CCN(CC(=O)O)CC1)C(=O)N[C@@H](Cc1c[nH]c2ccccc12)C(=O)N[C@@H](CO)C(N)=O [[^177Lu]Lu-uPAR-05, metal not drawn]",
    "UNITS": "%ID/g",
    "tissue uptake at 4 h": 1.4
  },
  {
    "MOLECULE": "CC(C)C[C@H](NC(=O)[C@H](Cc1ccc(O)cc1)NC(=O)[C@@H](CCCNC(=N)N)NC(=O)[C@@H](CO)NC(=O)[C@H](Cc1ccccc1)NC(=O)[C@H](CC1CCCCC1)NC(=O)[C@H](CC(=O)O)NC(=O)CN1CCN(CC(=O)O)CCN(CC(=O)O)CCN(CC(=O)O)CC1)C(=O)N[C@@H](Cc1c[nH]c2ccccc12)C(=O)N[C@@H](CO)C(N)=O [[^177Lu]Lu-DOTA-AE105, metal not drawn, reference compound]",
    "UNITS": "%ID/g",
    "tissue uptake at 4 h": 0.06
  },
  {
    "MOLECULE": "CC(C)C[C@H](NC(=O)[C@H](Cc1ccc(O)cc1)NC(=O)[C@@H](CCCNC(=N)N)NC(=O)[C@@H](CO)NC(=O)[C@H](Cc1ccccc1)NC(=O)[C@H](CC1CCCCC1)NC(=O)[C@H](CC(=O)O)NC(=O)[C@H](CCCCNC(=O)CCCc1ccc(I)cc1)NC(=O)CN1CCN(CC(=O)O)CCN(CC(=O)O)CCN(CC(=O)O)CC1)C(=O)N[C@@H](Cc1c[nH]c2ccccc12)C(=O)N[C@@H](CO)C(N)=O [[^177Lu]Lu-uPAR-01, metal not drawn]",
    "UNITS": "%ID/g",
    "tissue uptake at 4 h": 2
  }
]

* * *

# RUN_DESCRIPTION: in vivo
# ASSAY_CONTEXT: female, CD1/nude, mouse, 5 MBq (0.5 nmol), total radioactivity, Brain
Parameter tissue uptake at 4 h: see the listing below.
RECORDED_ENDPOINT: tissue uptake at 4 h (%ID/g)

[
  {
    "COMPOUND": "CC(C)C[C@H](NC(=O)[C@H](Cc1ccc(O)cc1)NC(=O)[C@@H](CCCNC(=N)N)NC(=O)[C@@H](CO)NC(=O)[C@H](Cc1ccccc1)NC(=O)[C@H](CC1CCCCC1)NC(=O)[C@H](CC(=O)O)NC(=O)[C@H](CCCCNC(=O)CCOCCOCCOCCOCCNC(=O)CCCc1ccc(I)cc1)NC(=O)CN1CCN(CC(=O)O)CCN(CC(=O)O)CCN(CC(=O)O)CC1)C(=O)N[C@@H](Cc1c[nH]c2ccccc12)C(=O)N[C@@H](CO)C(N)=O [[^177Lu]Lu-uPAR-02, metal not drawn]",
    "MEASUREMENT": 0.34
  },
  {
    "COMPOUND": "CC(C)C[C@H](NC(=O)[C@H](Cc1ccc(O)cc1)NC(=O)[C@@H](CCCNC(=N)N)NC(=O)[C@@H](CO)NC(=O)[C@H](Cc1ccccc1)NC(=O)[C@H](CC1CCCCC1)NC(=O)[C@H](CC(=O)O)NC(=O)[C@H](CCCCNC(=O)CCOCCOCCOCCOCCNC(=O)c1ccc(CNC(=O)CCCc2ccc(I)cc2)cc1)NC(=O)CN1CCN(CC(=O)O)CCN(CC(=O)O)CCN(CC(=O)O)CC1)C(=O)N[C@@H](Cc1c[nH]c2ccccc12)C(=O)N[C@@H](CO)C(N)=O [[^177Lu]Lu-uPAR-03, metal not drawn]",
    "MEASUREMENT": 0.31
  }
]

* * *

Parameter logD: see the listing below.
# RUN_DESCRIPTION: physchem
# ASSAY_CONTEXT: pH 7.4

[
  {
    "COMPOUND": "CC(C)C[C@H](NC(=O)[C@H](Cc1ccc(O)cc1)NC(=O)[C@@H](CCCNC(=N)N)NC(=O)[C@@H](CO)NC(=O)[C@H](Cc1ccccc1)NC(=O)[C@H](CC1CCCCC1)NC(=O)[C@H](CC(=O)O)NC(=O)[C@H](CCCCNC(=O)CCOCCOCCOCCOCCNC(=O)c1ccc(CNC(=O)CCCc2ccc(I)cc2)cc1)NC(=O)CN1CCN(CC(=O)O)CCN(CC(=O)O)CCN(CC(=O)O)CC1)C(=O)N[C@@H](Cc1c[nH]c2ccccc12)C(=O)N[C@@H](CO)C(N)=O [[^177Lu]Lu-uPAR-03, metal not drawn]",
    "logD": 0.37
  },
  {
    "COMPOUND": "CC(C)C[C@H](NC(=O)[C@H](Cc1ccc(O)cc1)NC(=O)[C@@H](CCCNC(=N)N)NC(=O)[C@@H](CO)NC(=O)[C@H](Cc1ccccc1)NC(=O)[C@H](CC1CCCCC1)NC(=O)[C@H](CC(=O)O)NC(=O)[C@H](CCCCNC(=O)CCOCCOCCOCCOCCNC(=O)CCCc1ccc(I)cc1)NC(=O)CN1CCN(CC(=O)O)CCN(CC(=O)O)CCN(CC(=O)O)CC1)C(=O)N[C@@H](Cc1c[nH]c2ccccc12)C(=O)N[C@@H](CO)C(N)=O [[^177Lu]Lu-uPAR-02, metal not drawn]",
    "logD": 0.25
  }
]

* * *

Parameter tissue uptake at 4 h: see the listing below.
# RUN_DESCRIPTION: Biodistribution studies in HEK-uPAR xenograft-bearing nude mice
# ASSAY_CONTEXT: female, CD1/nude, mouse, salivary glands, 5 MBq (0.5 nmol), total radioactivity, 4 h p.i.; 5 MBq, 0.5 nmol; decay-corrected; average ± SD, n=3 animals

[
  {
    "MOLECULE": "CC(C)C[C@H](NC(=O)[C@H](Cc1ccc(O)cc1)NC(=O)[C@@H](CCCNC(=N)N)NC(=O)[C@@H](CO)NC(=O)[C@H](Cc1ccccc1)NC(=O)[C@H](CC1CCCCC1)NC(=O)[C@H](CC(=O)O)NC(=O)[C@H](CCCCNC(=O)CCCc1ccc(I)cc1)NC(=O)CN1CCN(CC(=O)O)CCN(CC(=O)O)CCN(CC(=O)O)CC1)C(=O)N[C@@H](Cc1c[nH]c2ccccc12)C(=O)N[C@@H](CO)C(N)=O [[^177Lu]Lu-uPAR-01, metal not drawn]",
    "tissue uptake at 4 h (%ID/g)": 3.6
  },
  {
    "MOLECULE": "CC(C)C[C@H](NC(=O)[C@H](Cc1ccc(O)cc1)NC(=O)[C@@H](CCCNC(=N)N)NC(=O)[C@@H](CO)NC(=O)[C@H](Cc1ccccc1)NC(=O)[C@H](CC1CCCCC1)NC(=O)[C@H](CC(=O)O)NC(=O)CN1CCN(CC(=O)O)CCN(CC(=O)O)CCN(CC(=O)O)CC1)C(=O)N[C@@H](Cc1c[nH]c2ccccc12)C(=O)N[C@@H](CO)C(N)=O [[^177Lu]Lu-DOTA-AE105, metal not drawn, reference compound]",
    "tissue uptake at 4 h (%ID/g)": 0.09
  },
  {
    "MOLECULE": "CC(C)C[C@H](NC(=O)[C@H](Cc1ccc(O)cc1)NC(=O)[C@@H](CCCNC(=N)N)NC(=O)[C@@H](CO)NC(=O)[C@H](Cc1ccccc1)NC(=O)[C@H](CC1CCCCC1)NC(=O)[C@H](CC(=O)O)NC(=O)[C@H](CCCCNC(=O)CCCc1ccc(I)cc1)NC(=O)[C@@H](N)CCCCNC(=O)CN1CCN(CC(=O)O)CCN(CC(=O)O)CCN(CC(=O)O)CC1)C(=O)N[C@@H](Cc1c[nH]c2ccccc12)C(=O)N[C@@H](CO)C(N)=O [[^177Lu]Lu-uPAR-04, metal not drawn]",
    "tissue uptake at 4 h (%ID/g)": 2.8
  }
]
